Recorded values, source ChEMBL document CHEMBL3132783.

# test description: Antiplatelet activity in rabbit platelet rich plasma assessed as inhibition of ADP-induced aggregation treated for 5 mins prior to ADP-challenge
# Format: functional
# condition notes: Oryctolagus cuniculus
measured metric: pIC50
One number for each entry, as −log10 of the molar value.

Illustrative cases are given below, each with its answer.
> print(dat)
                          smiles.string  measured.metric  number
1         Cc1nc(C)c(Cn2cnc3ccccc32)nc1C            pIC50    2.72
2      Cc1nc(C)c(CNC(=O)CN2CCCC2=O)nc1C            pIC50    2.92
3  Cc1nc(C)c(CSc2nc(C)c(CC(=O)O)s2)nc1C            pIC50    3.21
4                C=CCSSCc1nc(C)c(C)nc1C            pIC50    2.89
5         Cc1nc(C)c(Cn2nnc3ccccc32)nc1C            pIC50    2.74

Next molecule, pIC50 to be filled in.
Q: Look up pIC50 of O=C(O)/C=C/c1ccc(Cn2ccnc2)cc1 and report it.
Result: 3.44

---

# test description: Antiplatelet activity in rabbit platelet rich plasma assessed as inhibition of ADP-induced aggregation at 0.4 mM treated for 5 mins prior to ADP-challenge relative to control
# Assay type: functional
# condition notes: Oryctolagus cuniculus
Assign inhibition at 400 µM to each entry below.
Give bare numbers, in %.

Illustrative cases are given below, each with its answer.
> print(dat)
                            smiles.string  scale.unit  number
1     C=CCc1ccc(OCc2nc(C)c(C)nc2C)c(OC)c1           %    6.42
2     Cc1nc(C)c(CSc2nnc(-c3cccs3)n2N)nc1C           %    38.5
3  Cc1nc(C)c(COc2ccc3c(C)cc(=O)oc3c2)nc1C           %    40.1
4     Cc1nc(C)c(COc2ccc3ccc(=O)oc3c2)nc1C           %    39.2
5           Cc1nc(C)c(Cn2cnc3ccccc32)nc1C           %    30.9

Take each entry in turn and give its inhibition at 400 µM.
1. Cc1nc(C)c(CSc2nnnn2-c2cccc3ccccc23)nc1C
2. Cc1nc(C)c(CSc2nnnn2-c2ccccc2)nc1C
3. Cc1nc(C)c(COC(=O)CCCC[C@@H]2CCSS2)nc1C

Result:
[13.1, 9.33, 27.6]

---

# test description: Antiplatelet activity in rabbit platelet rich plasma assessed as inhibition of ADP-induced aggregation at 0.2 mM treated for 5 mins prior to ADP-challenge relative to control
# Assay type: functional
# condition notes: Oryctolagus cuniculus
The threshold is inclusive: inhibition at 200 µM of exactly 20% counts as true; values below receive false.

# example entries with known answers
> print(dat)
                             smiles.string  group
1                Cc1nc(C)c(CSc2nnnn2C)nc1C  false
2      Cc1nc(C)c(COc2ccc3ccc(=O)oc3c2)nc1C   true
3  Cc1nc(C)c(CSc2nnnn2-c2cccc3ccccc23)nc1C  false
4      C=CCc1ccc(OCc2nc(C)c(C)nc2C)c(OC)c1  false
5      COc1cc(C(=O)O)ccc1OCc1nc(C)c(C)nc1C  false

Q: Exam item: decide whether the reported inhibition at 200 µM for C=CCSSCc1nc(C)c(C)nc1C is at least 20%.
Result: true

Q: Exam item: decide whether the reported inhibition at 200 µM for CCOC(=O)c1ccccc1OCc1nc(C)c(C)nc1C is at least 20%.
Result: false

Q: Exam item: decide whether the reported inhibition at 200 µM for Cc1nc(C)c(CSc2nnnn2-c2ccccc2)nc1C is at least 20%.
Result: false

---

# test description: Cytoprotective activity in H2O2-induced human ECV304 cells assessed as proliferation rate at 50 uM incubated for 24 hrs prior to H2O2-challenge measured after 12 hrs by MTT assay relative to control
# Assay type: functional
# condition notes: ECV-304, read-out: Activity
measured metric: growth at 50 µM (%)
One number for each entry, in %.

> print(dat)
                                 molecule  number
1  Cc1nc(C)c(COc2ccc3c(C)cc(=O)oc3c2)nc1C    25.8
2                        Cc1nc(C)c(C)nc1C    22.1
3    Cc1nc(C)c(CSc2nc(C)c(CC(=O)O)s2)nc1C      47
4     Cc1nc(C)c(COc2ccc3ccc(=O)oc3c2)nc1C    44.2

Take each entry in turn and give its growth at 50 µM.
1. Cc1nc(C)c(Cn2nnc3ccccc32)nc1C
2. C=CCSSCc1nc(C)c(C)nc1C
3. Cc1nc(C)c(CNC(=O)CN2CCCC2=O)nc1C
4. Cc1nc(C)c(CSc2nnnn2C)nc1C

Result:
-96.5
15
23.4
-77

Take each entry in turn and give its growth at 50 µM.
1. Cc1nc(C)c(Cn2cnc3ccccc32)nc1C
2. C=CCc1ccc(OCc2nc(C)c(C)nc2C)c(OC)c1
3. Cc1nc(C)c(CSc2nc3ccccc3s2)nc1C
4. Cc1nc(C)c(COC(=O)CCCC[C@@H]2CCSS2)nc1C
5. CCOC(=O)c1ccc(OCc2nc(C)c(C)nc2C)c(OC)c1
6. COc1cc(C(=O)O)ccc1OCc1nc(C)c(C)nc1C
7. CCOC(=O)c1ccccc1OCc1nc(C)c(C)nc1C
8. Cc1nc(C)c(CSc2nnnn2-c2ccccc2)nc1C

Result:
0.25
30.1
9.51
160
15.8
18.4
19.2
-78.4

Take each entry in turn and give its growth at 50 µM.
1. O=C(O)CCCCC1CCSS1 (stereo unspecified)
2. Cc1nc(C)c(CSc2nnc(-c3cccs3)n2N)nc1C
3. Cc1nc(C)c(CSc2nnc(-c3ccco3)n2N)nc1C
4. CSc1snc(OCc2nc(C)c(C)nc2C)c1C#N
5. Cc1nc(C)c(COc2ccccc2C(=O)O)nc1C

Result:
[48.7, 38.2, 23.5, 160, 18.2]

---

# test description: Cytoprotective activity in H2O2-induced human ECV304 cells assessed as proliferation rate at 100 uM incubated for 24 hrs prior to H2O2-challenge measured after 12 hrs by MTT assay relative to control
# Format: functional
# condition notes: ECV-304, read-out: Activity
Binary call on growth at 100 µM with cut-off 20%: strictly below means Yes, and equality or higher means No.

# example entries with known answers
> print(dat)
                                  compound  group
 1     Cc1nc(C)c(CSc2nnc(-c3cccs3)n2N)nc1C     No
 2       Cc1nc(C)c(CSc2nnnn2-c2ccccc2)nc1C    Yes
 3                  C=CCSSCc1nc(C)c(C)nc1C     No
 4               Cc1nc(C)c(CSc2nnnn2C)nc1C    Yes
 5  Cc1nc(C)c(COC(=O)CCCC[C@@H]2CCSS2)nc1C     No
 6     Cc1nc(C)c(COc2ccc3ccc(=O)oc3c2)nc1C     No
 7                        Cc1nc(C)c(C)nc1C     No
 8           Cc1nc(C)c(Cn2nnc3ccccc32)nc1C    Yes
 9     Cc1nc(C)c(CSc2nnc(-c3ccco3)n2N)nc1C     No
10          Cc1nc(C)c(CSc2nc3ccccc3s2)nc1C    Yes

Q: Does the reported growth at 100 µM of Cc1nc(C)c(CNC(=O)CN2CCCC2=O)nc1C stay below 20%?
Result: No

Q: Does the reported growth at 100 µM of O=C(O)CCCCC1CCSS1 (centres undefined) stay below 20%?
Result: No

---

# test description: Antiplatelet activity in rabbit platelet rich plasma assessed as inhibition of ADP-induced aggregation at 0.2 mM treated for 5 mins prior to ADP-challenge relative to control
# Format: functional
# condition notes: Oryctolagus cuniculus
measured metric: inhibition at 200 µM
Record the result as number plus unit.

Illustrative cases are given below, each with its answer.
> print(dat)
                                  compound  result
1           Cc1nc(C)c(CSc2nc3ccccc3s2)nc1C   20.9%
2          Cc1nc(C)c(COc2ccccc2C(=O)O)nc1C   34.6%
3  CCOC(=O)c1ccc(OCc2nc(C)c(C)nc2C)c(OC)c1   7.48%
4      Cc1nc(C)c(CSc2nnc(-c3cccs3)n2N)nc1C   23.2%
5            Cc1nc(C)c(Cn2nnc3ccccc32)nc1C   16.9%

Take each entry in turn and give its inhibition at 200 µM.
1. O=C(O)/C=C/c1ccc(Cn2ccnc2)cc1 [OZAGREL]
2. Cc1nc(C)c(COC(=O)CCCC[C@@H]2CCSS2)nc1C
3. Cc1nc(C)c(CSc2nc(C)c(CC(=O)O)s2)nc1C
4. CSc1snc(OCc2nc(C)c(C)nc2C)c1C#N
5. Cc1nc(C)c(CNC(=O)CN2CCCC2=O)nc1C
6. Cc1nc(C)c(COc2ccc3c(C)cc(=O)oc3c2)nc1C

Result:
45.4%
29%
38.3%
22.6%
19.6%
17.2%

Q: Look up inhibition at 200 µM of Cc1nc(C)c(Cn2cnc3ccccc32)nc1C and report it.
Result: 13.1%
